Each entry below carries its reported bioavailability.
# Test Details: clinical
# Condition Context: human, in vivo, po, F
Give just the numeric value; % need not be written.

# Chem Smiles, Observable, Endpoint Unit, Data Value
records = [
    ("CNCCC=C1c2ccccc2CCc2ccccc21", "bioavailability", "%", 79),
    ("CC(=O)S[C@@H]1CC2=CC(=O)CC[C@]2(C)[C@H]2CC[C@@]3(C)[C@@H](CC[C@@]34CCC(=O)O4)[C@H]12", "bioavailability", "%", 49),
    ("C#C[C@]1(O)CC[C@H]2[C@@H]3CCC4=CC(=O)CC[C@@H]4[C@H]3CC[C@@]21C", "bioavailability", "%", 79),
]

Next up:
Per the records, this molecule ( CC(=O)Oc1ccccc1C(=O)O ) has bioavailability equal to 79

----------
# Condition Context: octanol/water
Observable: delta logD
No unit in the answer, only the number.

These solved cases illustrate the format of a correct answer.
# Compound, Data Value
measured = [
    ("CCC1(c2cccc(O)c2)CCCCN(C)C1 (stereo unspecified) [MEPTAZINOL]", -0.88),
    ("Cc1ccc(C(=O)c2ccc(CC(=O)O)n2C)cc1 [TOLMETIN]", 0.9),
    ("CCC(=O)O[C@](Cc1ccccc1)(c1ccccc1)[C@H](C)CN(C)C [PROPOXYPHENE]", -0.89),
    ("O=C1Nc2ccc(Cl)cc2C(c2ccccc2Cl)=NC1O (stereo unspecified) [LORAZEPAM]", 0),
    ("CC(C)(C)NCC(O)c1cc(Cl)c(N)c(C(F)(F)F)c1 (stereo unspecified) [MABUTEROL]", -0.9),
    ("COc1cc2nc(N3CCN(C(=O)C4COc5ccccc5O4)CC3)nc(N)c2cc1OC (stereo unspecified) [DOXAZOSIN]", -0.25),
]

Per the records, this compound ( COc1ccccc1N1CCN(CCCNc2cc(=O)n(C)c(=O)n2C)CC1 ) has delta logD equal to -0.52

Per the records, this compound ( CN1CCC[C@H]1c1cccnc1 [NICOTINE] ) has delta logD equal to -0.82

----------
Each entry below carries its reported logD.
# Test Details: physchem
# Condition Context: octanol/water, pH 6.5, logD
No unit in the answer, only the number.

# Compound, logD
records = [
    ("NNC(=O)c1ccncc1", -0.7),
    ("CC(CCc1ccc(O)cc1)NCCc1ccc(O)c(O)c1 (stereo not given)", -0.48),
]

Per the records, this compound ( O=C1NC(=O)C(c2ccccc2)(c2ccccc2)N1 ) has logD equal to 2.47

Per the records, this compound ( COc1cc2nc(N3CCN(C(=O)C4CCCO4)CC3)nc(N)c2cc1OC (stereo not given) ) has logD equal to 0.29

Per the records, this compound ( CC(C)NCC(O)c1cc(O)cc(O)c1 (stereo not given) ) has logD equal to -2.72

Per the records, this compound ( Cc1nccn1CC1CCc2c(c3ccccc3n2C)C1=O (stereo not given) ) has logD equal to 1.13

Per the records, this compound ( CN1CCN(CCCN2c3ccccc3Sc3ccc(Cl)cc32)CC1 ) has logD equal to 2.51

Per the records, this compound ( CCC1(c2ccccc2)C(=O)NCNC1=O ) has logD equal to 0.91

Per the records, this compound ( Nc1nc(N)c2nc(-c3ccccc3)c(N)nc2n1 ) has logD equal to 0.8

Per the records, this compound ( C[C@H]1C[C@H]2[C@@H]3CCC4=CC(=O)C=C[C@]4(C)[C@@]3(F)[C@@H](O)C[C@]2(C)[C@@]1(O)C(=O)CO ) has logD equal to 1.94

Per the records, this compound ( CO/C(O)=C1\C(C)=NC(C)=C(C(=O)OCC(C)C)C1c1ccccc1[N+](=O)[O-] (stereo not given) ) has logD equal to 1.58

Per the records, this compound ( CNCCC=C1c2ccccc2CCc2ccccc21 ) has logD equal to 1.08

Per the records, this compound ( CN1CCN2c3ncccc3Cc3ccccc3C2C1 (stereo not given) ) has logD equal to 2.01
